Listed below: shrunken log2 fold change values for each entry.
- Test system: Escherichia coli TOP10;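 further: peptides expressed intracellularly from a pBAD plasmid library in pooled LB shake-flask culture, induced with 0.3% L-arabinose, DNA abundance read by NGS, three biological replicates, DESeq2 with apeglm shrinkage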
- Test Name: shrunken log2 fold change of peptide-encoding DNA abundance (4.5 h post-induction vs induction); higher = less antimicrobial activity (less host growth inhibition)
- Particulars: time post-induction: 4.5 h; library: site-saturation at positions 5, 18, 19, 20
Measurement Kind: shrunken log2 fold change

biosequence=RRIRRRPPRLPRPRPRPHKLPRP measurement_kind="shrunken log2 fold change" recorded_value=0.022
biosequence=RRIRQRPPRLPRPRPRPYAHPRP measurement_kind="shrunken log2 fold change" recorded_value=-0.249
biosequence=RRIRMRPPRLPRPRPRPFWTPRP measurement_kind="shrunken log2 fold change" recorded_value=0.0652
biosequence=RRIRRRPPRLPRPRPRPISWPRP measurement_kind="shrunken log2 fold change" recorded_value=-0.166
biosequence=RRIRGRPPRLPRPRPRPESFPRP measurement_kind="shrunken log2 fold change" recorded_value=0.0921
biosequence=RRIRQRPPRLPRPRPRPIPHPRP measurement_kind="shrunken log2 fold change" recorded_value=0.021
biosequence=RRIRWRPPRLPRPRPRPINKPRP measurement_kind="shrunken log2 fold change" recorded_value=-0.431
biosequence=RRIRQRPPRLPRPRPRPNYVPRP measurement_kind="shrunken log2 fold change" recorded_value=-0.426
biosequence=RRIRNRPPRLPRPRPRPKWIPRP measurement_kind="shrunken log2 fold change" recorded_value=0.0111
biosequence=RRIRQRPPRLPRPRPRPVNYPRP measurement_kind="shrunken log2 fold change" recorded_value=-0.00127
biosequence=RRIRMRPPRLPRPRPRPWNQPRP measurement_kind="shrunken log2 fold change" recorded_value=-0.0405
biosequence=RRIRTRPPRLPRPRPRPCAYPRP measurement_kind="shrunken log2 fold change" recorded_value=-0.164
biosequence=RRIRARPPRLPRPRPRPVLNPRP measurement_kind="shrunken log2 fold change" recorded_value=-0.0316
biosequence=RRIRERPPRLPRPRPRPLMDPRP measurement_kind="shrunken log2 fold change" recorded_value=-0.134
biosequence=RRIRPRPPRLPRPRPRPYVDPRP measurement_kind="shrunken log2 fold change" recorded_value=-0.117
biosequence=RRIRERPPRLPRPRPRPTNDPRP measurement_kind="shrunken log2 fold change" recorded_value=0.127
biosequence=RRIRGRPPRLPRPRPRPLYQPRP measurement_kind="shrunken log2 fold change" recorded_value=0.0508
biosequence=RRIRIRPPRLPRPRPRPNGEPRP measurement_kind="shrunken log2 fold change" recorded_value=-0.0757
biosequence=RRIRPRPPRLPRPRPRPSHTPRP measurement_kind="shrunken log2 fold change" recorded_value=-0.0343
biosequence=RRIRHRPPRLPRPRPRPVSEPRP measurement_kind="shrunken log2 fold change" recorded_value=-0.254
biosequence=RRIRKRPPRLPRPRPRPIYPPRP measurement_kind="shrunken log2 fold change" recorded_value=-0.0542
biosequence=RRIRLRPPRLPRPRPRPEYWPRP measurement_kind="shrunken log2 fold change" recorded_value=-0.0516
biosequence=RRIRWRPPRLPRPRPRPRQDPRP measurement_kind="shrunken log2 fold change" recorded_value=0.796
biosequence=RRIRFRPPRLPRPRPRPRLYPRP measurement_kind="shrunken log2 fold change" recorded_value=-0.014
biosequence=RRIRGRPPRLPRPRPRPRDHPRP measurement_kind="shrunken log2 fold change" recorded_value=0.978
biosequence=RRIRWRPPRLPRPRPRPVDIPRP measurement_kind="shrunken log2 fold change" recorded_value=0.101
biosequence=RRIRVRPPRLPRPRPRPQEGPRP measurement_kind="shrunken log2 fold change" recorded_value=-0.15
biosequence=RRIRWRPPRLPRPRPRPRQKPRP measurement_kind="shrunken log2 fold change" recorded_value=0.0761
biosequence=RRIRFRPPRLPRPRPRPYSGPRP measurement_kind="shrunken log2 fold change" recorded_value=-0.293
biosequence=RRIRDRPPRLPRPRPRPSCKPRP measurement_kind="shrunken log2 fold change" recorded_value=-0.1
biosequence=RRIRMRPPRLPRPRPRPPTLPRP measurement_kind="shrunken log2 fold change" recorded_value=0.256
biosequence=RRIRERPPRLPRPRPRPVRMPRP measurement_kind="shrunken log2 fold change" recorded_value=0.11
biosequence=RRIRWRPPRLPRPRPRPCYEPRP measurement_kind="shrunken log2 fold change" recorded_value=-0.136
biosequence=RRIRKRPPRLPRPRPRPHKDPRP measurement_kind="shrunken log2 fold change" recorded_value=-0.113
biosequence=RRIRRRPPRLPRPRPRPRPRPRP measurement_kind="shrunken log2 fold change" recorded_value=0.86
biosequence=RRIRWRPPRLPRPRPRPTLQPRP measurement_kind="shrunken log2 fold change" recorded_value=0.253
biosequence=RRIRPRPPRLPRPRPRPTFYPRP measurement_kind="shrunken log2 fold change" recorded_value=-0.235
biosequence=RRIRRRPPRLPRPRPRPLRYPRP measurement_kind="shrunken log2 fold change" recorded_value=0.463
biosequence=RRIRDRPPRLPRPRPRPLETPRP measurement_kind="shrunken log2 fold change" recorded_value=0.73
biosequence=RRIRLRPPRLPRPRPRPPYWPRP measurement_kind="shrunken log2 fold change" recorded_value=0.106
biosequence=RRIRRRPPRLPRPRPRPKTYPRP measurement_kind="shrunken log2 fold change" recorded_value=-0.239
biosequence=RRIRWRPPRLPRPRPRPLTCPRP measurement_kind="shrunken log2 fold change" recorded_value=0.0568
biosequence=RRIRERPPRLPRPRPRPLNTPRP measurement_kind="shrunken log2 fold change" recorded_value=-1.11
biosequence=RRIRVRPPRLPRPRPRPYKWPRP measurement_kind="shrunken log2 fold change" recorded_value=-0.266
biosequence=RRIRRRPPRLPRPRPRPYGCPRP measurement_kind="shrunken log2 fold change" recorded_value=-0.00402
biosequence=RRIRARPPRLPRPRPRPDMIPRP measurement_kind="shrunken log2 fold change" recorded_value=-0.0395
biosequence=RRIRSRPPRLPRPRPRPISHPRP measurement_kind="shrunken log2 fold change" recorded_value=-0.421
biosequence=RRIRHRPPRLPRPRPRPFYMPRP measurement_kind="shrunken log2 fold change" recorded_value=-0.292
biosequence=RRIRLRPPRLPRPRPRPSPMPRP measurement_kind="shrunken log2 fold change" recorded_value=-0.107

Source listed as the supplement of paper PMC9112550.
